B1: GFOD1 (parent)
chain: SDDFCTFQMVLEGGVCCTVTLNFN

variants of: B1; test: protein stability index of a GFP-peptide fusion (GPS, HEK-293T) (PSI 1-6); higher = more stable; conditions: c terminus: a fixed tail appended;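 further: lentivirally expressed fusions sorted by FACS into six bins by GFP to DsRed ratio, PSI derived from sequencing read proportions per bin multiplied by bin number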
Binary call on protein stability index: yes from 3 upward, no beneath that.

Below are worked cases with known answers.
- variant identifier: "G14M"
  assigned category: "no"
- variant identifier: "V10L"
  assigned category: "no"
- variant identifier: "F4S"
  assigned category: "no"
- variant identifier: "C17K"
  assigned category: "no"
- variant identifier: "F7P"
  assigned category: "no"

Decide: protein stability index of `V15K` >= 3?
no

Request: `F4Y`
no

What about `V10D` ?
yes

Same lookup for `N24A` , please.
yes

Now the same for `L21D`
no

Next record, please: `M9E`
no

Query `Q8G` next
no

Same question, `D3Q` this time
no

Try the variant `L21E`
no

Now this one: `V19Y`
no

// query: `C16A`
yes

Repeat with `Q8I`
yes

Also check `C5V`
yes

Another: `L21M`
no

And `T18E` ?
yes

Now consider `Q8D` and answer again.
no

Also need `D2H` , thanks.
no

Now consider `D3L` and answer again.
no

Follow-up entry: `L21N`
no

Would you kindly repeat that for `V19G` ?
no

Data origin: the supplement of paper PMC10567573
